System: MDA-MB-435 melanoma
Experimental protocol: NCI-60 one-dose screen, 48 h
Applied conditions: 10 µM unless noted
About 83,000 compounds went through this panel and 20% of them were active in at least one assay; those are over-represented in the sample as a whole. Calls of active or inactive are those of the source. How the source made its calls: active means growth percent below 10; inactive means the rest.
Give your call using only these classes: active, inactive

Query :: Dear all, I need the recorded test outcome for COC(=O)c1ccc2c(c1)C(=O)c1c-2n(CCCN)c(=O)c2cc([N+](=O)[O-])ccc12 , thank you.
Result :: active

Query :: Repeat with Cc1ccc(/C=N/Nc2nc(Nc3ccccc3)nc(-n3nc(C)cc3C)n2)cc1
Result :: inactive

Query :: Same for COc1ccc(-c2nn(-c3ccccc3)cc2/C=C2/SC(=S)N(C)C2=O)cc1
Result :: inactive

Query :: Check CS(=O)(=O)C1=CN(CCO)C(=O)N2CCCN=C12 too.
Result :: inactive

Query :: Would you mind doing C#COc1cccc(Nc2ncnc3ncc(NC(=O)CCl)cc23)c1 as well?
Result :: inactive

Query :: And COc1ccc2c(O)c(/C=C3\N=Nc4ccccc43)oc2c1C[C@@H]1CCNC[C@H]1F ?
Result :: inactive

Query :: How about CC(C)(C)n1cc(-c2ccnc(NCCCNS(=O)(=O)c3ccc(F)cc3)c2)c(-c2cccc(F)c2)n1 ?
Result :: inactive

Query :: Subsequent entry: CSc1nc2sc3c(c2c(=O)n1-c1ccc([N+](=O)[O-])cc1)CCCCC3
Result :: inactive
